All figures here come from patent US20190106487A1.

Please go through the items and note down their EC50.
- TARGET_OR_SYSTEM: T1, rhIL-1RAcP/Fc Chimera (human, UniProt Q9NPH3 21-359)
- T1 construct: also called P013_03; P013-03
- T1 sequence (looked up): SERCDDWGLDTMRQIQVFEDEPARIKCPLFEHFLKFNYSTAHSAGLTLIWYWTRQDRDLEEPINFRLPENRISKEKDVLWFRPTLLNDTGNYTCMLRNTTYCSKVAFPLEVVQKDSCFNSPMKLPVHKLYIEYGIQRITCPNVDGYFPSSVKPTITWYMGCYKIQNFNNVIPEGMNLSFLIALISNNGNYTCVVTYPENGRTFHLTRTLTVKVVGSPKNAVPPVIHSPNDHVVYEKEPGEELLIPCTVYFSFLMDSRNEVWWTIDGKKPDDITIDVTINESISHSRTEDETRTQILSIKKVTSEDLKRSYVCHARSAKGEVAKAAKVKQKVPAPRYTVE
- ASSAY_TEXT: ELISA, recombinant purified mAb
Numbers only here, please. The scale is µg/mL.

Exercise: Fill in EC50 for record P013.S.02.B.B03 (antibody, V domains shown, rabbit monoclonal antibody; also called P013.A.00045.F11) VH: QEQLEESGGDLVKPEGSLTLTCTASGFSFSSNYWICWVRQAPGKGLELIACIYTSTGNTWYASWAKGRFTISKTSSTTVTLQMTSLTVADTATYFCARDLLVVTSFNLWGQGTLVTVSS VL: ALVMTQTPSPVSAAVGGTVTINCQASEDIYSNLAWFQQKPGQPPKLLIYGASTLASGVPSRFSGSGSGTEFTLTISGVQSDDAATYYCLGVCTDISTDDLYNAFGGGTELVVK
Key: 0.287

Exercise: Identify measured EC50 associated with P013.S.01.B.F06 (antibody, V domains shown, rabbit monoclonal antibody; also called P013.A.00045.E09) VH: QSVEESGGRLVTPGTPLTLTCTVSGIDLSSDAVGWVRQAPGKGLEYIGIIVSSGETFYASWARGRCTISKTSSTTVDLRITRLTTEDTATYFCARGGPGYSFDTEYAFDPWGPGTLVTVSS VL: AFEMTQTPASVEVAVGGTVTINCQASQSIGSWLSWYQQKVGQRPKLLISRASTLASGVPSRFKGSGSGTEYTLTISGVQSDDAATFYCQQGATTYDVDNVFGGGTEVVVR
Key: 0.039

Exercise: Recall and state the measured EC50 for P013.S.01.B.A02 (antibody, V domains shown, rabbit monoclonal antibody; also called P013.A.00003.H11) VH: QSVEESGGRLVTPGTPLTLTCTVSGIDLSSYAMGWVRQAPGKGLEYIGVITSSATTYYASWAKGRFTISKTSSTTVDLRVTSLTTEDTATYFCARGGPGYSTNTHYAFDPWGPGTLVTVSS VL: AFEMTQTPSSVSEPVGGTVTIKCQASQSIYIYLSWYQQKPGQRPKLLIYDASKLASGVPSRFSGSGSGTEFTLTISGVQSDDAATYYCQQGATTYNVDNVFGGGTEVVVK .
Key: 0.042

Exercise: Let me know recorded EC50 for P013.S.02.B.A05 (antibody, V domains shown, rabbit monoclonal antibody; also called P013.A.00031.D11) VH: QEQLVESGGGLVQPEGSLTLTCQASGFTFSSYYVICWVRQAPGKGLEWIACIGTGDGLTYYASWAKGRFTISKTSSTTVTLQMTSLTAADTATYFCARDRYATVSGILNLWGPGTLVTVSS VL: DVVMTQTPASVEAAVGGTVTIKCQASQNIYSNCAWYQQKLGQRPKLLIYYVSTLESGVPSRFEGSGYGTEFTLTISDLQSADAATYYCQYTYDSSSSTSWAFGGGTEVVVK , thanks.
Key: 0.362
